Hello, the source for this data is patent US20260242478A1, in case you need it.

Target: T1, Anti-CD28 Fab (SEQ ID NOs: 696, 697)
T1 construct: Biotinylated and captured on neutravidin coated plates in the phage ELISA
T1 sequence (VH, as listed by the source, chain 1 of 2): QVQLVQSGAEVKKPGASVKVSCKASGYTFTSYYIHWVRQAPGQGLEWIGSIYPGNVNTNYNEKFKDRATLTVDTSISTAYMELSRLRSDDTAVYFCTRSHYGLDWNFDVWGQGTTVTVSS
T1 sequence (VL, as listed by the source, chain 2 of 2): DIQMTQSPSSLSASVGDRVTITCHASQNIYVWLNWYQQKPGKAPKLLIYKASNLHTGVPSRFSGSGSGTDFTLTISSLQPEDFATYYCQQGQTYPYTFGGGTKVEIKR
Assay: phage binding ELISA; biotinylated anti-CD28 Fab on neutravidin plate, clonal phage supernatant, anti-M13 HRP detection;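 further: wells pretreated with blocking buffer, either plus or minus CD28 antigen, then given crude phage supernatant briefly without washing in between, then washed before anti-M13 HRP readout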
# T = Anti-CD28 Fab (SEQ ID NOs: 696, 697) signal below 2 (exclusive); F = Anti-CD28 Fab (SEQ ID NOs: 696, 697) signal at/above 2

# count of solved cases: 2
LCAAGASWPWPVCL [Phage-1335]    F
LCAAGATYPWPTCL [Phage-1344]    T

is_below(Anti-CD28 Fab (SEQ ID NOs: 696, 697) signal, 2) for TCSAGAAYPWPLCL [Phage-1342] ? F

For this binder, is Anti-CD28 Fab (SEQ ID NOs: 696, 697) signal lower than 2? TCSAGASYPWPLCL [Phage-1336] F

API: query returns whether the binder falls strictly under 2 in Anti-CD28 Fab (SEQ ID NOs: 696, 697) signal. Query: TCAAGAAWGWPLCF [Phage-1340] F
